# Tested on: NCI-H522 lung
# PROTOCOL DETAILS: NCI tumour cell line growth inhibition, 48 h
ASSAY ENDPOINT: TGI (µM)
Report the figure in µM without appending any unit label.

• O=C1c2ccccc2-c2cc([N+](=O)[O-])c([N+](=O)[O-])cc21 = 2.99

Fill in the blank: the reported TGI of O=c1[nH]c(=O)n(C2CC(O)C(COP(=O)(OCc3ccc([N+](=O)[O-])o3)N(CCCCCl)CC(O)CO)O2)cc1F (stereo not drawn) is ____. 77.4

If you can, please state the reported TGI value of CCCP1(=O)C=C(C)C(=C(Cl)Cl)C(C)=C1 (stereo not drawn) . 36.5

Look up TGI: CC(=O)/C=C/c1cn(C(=O)OC(C)(C)C)c2ccc(Br)cc12 63.3

---

# System: BT-549 breast
# PROTOCOL DETAILS: NCI tumour cell line growth inhibition, 48 h
ASSAY ENDPOINT: TGI (µM)
Hi! Could you send only the number? It should be in µM, unit omitted.

Please give the measured TGI for this molecule: O=C1OCC2=C1C(c1ccccc1)c1cc3c(cc1N2)OCO3 (stereo not drawn) 4.97

Using the record for COC1/C=C/C(C)C(C(C)C(OC)C(C)CCC(=O)C(C)C(C/C=C/N(C)C=O)OC)OC(=O)C=CC2OC2(C)CC(OC)C(OC)C2=CC(=O)O[C@@H](C(C)C(OC)CC(OC)/C=C/C(C)C(O)C1)[C@H]2O (stereo partly drawn) , report its TGI. 0.0907

Looking for the measured TGI of CCc1ccc2c(c1)N(CCO)C1=C(C(=O)OC1)C2c1cccc(Br)c1 (stereo not drawn) , can you help? 19.7

Field request: TGI | item: CNCCCNCCCCNCCCN1C(=O)c2ccc3c4c(ccc(c24)C1=O)C(=O)N(CCCNCc1ccccc1OC)C3=O 15.8

---

# Tested on: EKVX NSCLC
# PROTOCOL DETAILS: NCI tumour cell line growth inhibition, 48 h
TGI overview

• CCN1C(=O)c2cc(OC)c(OC)cc2C(=O)C12OC(=O)c1cc3c(cc12)OCO3 (stereo not drawn) = > 100 µM

Shift focus to the following entry.
For the molecule shown here, N#CC1C(=O)NC23CCCCC2C1c1ccccc1O3 (stereo not drawn) , give the reported TGI. > 100 µM

---

Recorded TGI, one value per entry.
# Tested on: SR leukemia
# PROTOCOL DETAILS: NCI tumour cell line growth inhibition, 48 h
Where a SMILES comes first, the peptide text is derived from it. [ ]: non-standard residue; d: D form. The star is where a group is joined. NMeV = CN[C@H](C(=O)O)C(C)C; X29 = COc1ccc(CN*)c(OC)c1; Octanoyl = CCCCCCCC(=O)*; dNMeA = CN[C@H](C)C(=O)O

Consider the following illustrative entries.
* COc1cc2c(cc1OC)C1C=NC(C2)c2cc(OC)c(OC)cc21 (stereo not drawn) | > 100 µM
* Cn1c(=O)c2[nH]c(CCNC(=O)c3ccccc3)nc2n(C)c1=O | > 100 µM
* CN1C(=O)N(C)C2C1NN=c1s/c(=C\c3ccc(C(F)(F)F)cc3)c(=O)n12 (stereo not drawn) | > 100 µM
* CCN1CCC(C)OP1(=O)Cc1ccccc1 (stereo not drawn) | > 100 µM
* CCOC(=O)/C(C=Nc1c(C)n(C)n(-c2ccccc2)c1=O)=C(/C)O | > 100 µM
* COC(=O)C1(C)CCc2c(OC)ccc(OC)c2C1=O (stereo not drawn) | > 100 µM

Test system SR leukemia; read-out TGI; what value for COc1ccc2c(c1)N(CCO)C1=C(C(=O)OC1)C2c1cccc(F)c1 (stereo not drawn) ? > 50 µM

TGI of COC(=O)[C@@H]1CC(C(C[N+](=O)[O-])c2ccc(O[Si](C)(C)C(C)(C)C)cc2)C(=O)N1C(=O)OC(C)(C)C (stereo partly drawn) on SR leukemia? > 100 µM

Field: TGI (SR leukemia). Entry: O=C(O)CN1CCN(CC(=O)O)CC(=O)[O][Hg][O]C(=O)C1 38.6 µM

Kindly state the measured TGI obtained for O=C1CCCN1C(=O)CS(=O)(=O)c1ccccc1 with SR leukemia. > 100 µM

Item: O=C1c2c(c3c4ccccc4[nH]c3c3ccc4ccccc4c23)C(=O)N1CCN1CCNCC1 Test system: SR leukemia Read-out: TGI Value: ? 2.63 µM

Lab note: need TGI for C/C(=C\c1ccc2ccccc2c1)[N+](=O)[O-] on SR leukemia, anyone have it? 2.56 µM

Look up TGI with SR leukemia for this compound: N#CC(=C1C=CC(=NO)C=C1)c1ccc(Cl)cc1 43.5 µM

What value of TGI on SR leukemia does O=C(Nc1nc2ccc([N+](=O)[O-])cc2s1)C(=O)C(C(=O)c1ccccc1F)C1OC(=O)c2ccccc21 (stereo not drawn) have? 54.2 µM

Request: TGI, test system SR leukemia, entry COC(=O)[C@H](CCSC)NC(=O)N[C@H](C)c1ccccc1 > 100 µM

API: value(readout=TGI, system=SR leukemia) for record CCCCn1c(N)c(-c2nc3ccccc3o2)sc1=S > 100 µM

// fetch SR leukemia TGI for CCCCCCCC(=O)N[C@H](C(=O)N[C@H](C(=O)N(C)[C@H](C(=O)N1CCC[C@H]1C(=O)N(C)[C@H](C)C(=O)NCc1ccc(OC)cc1OC)C(C)C)C(C)C)C(C)C (Octanoyl-VV[NMeV]P[dNMeA]-X29) > 65.6 µM

Please provide the recorded TGI for CC(C)(C)c1cc2c(OC/C=C/c3ccccc3)c(c1)Cc1cc(C(C#N)(OC/C=C/c3ccccc3)OC/C=C/c3ccccc3)cc(c1OC/C=C\c1ccccc1)Cc1cc(C(C)(C)C)cc(c1OC/C=C/c1ccccc1)Cc1cc(C(C#N)(OC/C=C\c3ccccc3)OC/C=C/c3ccccc3)cc(c1OC/C=C\c1ccccc1)C2 (stereo not drawn) , tested on SR leukemia. 49.3 µM

---

The compounds listed here are annotated with their TGI.
# System: SK-OV-3 ovarian
# PROTOCOL DETAILS: NCI tumour cell line growth inhibition, 48 h
Where a SMILES comes first, the peptide text is derived from it. The star is where a group is joined. Boc = CC(C)(C)OC(=O)*

Here's what some known entries look like.
* Cc1cc(C)c(-n2[nH]c(=O)n(C)c2=O)c(C)c1 | > 100 µM
* CCN1CCC(C)OP1(=O)Cc1ccccc1 (stereo not given) | > 100 µM
* CC(C)(C)OC(=O)NC(Cc1ccc(O)cc1)C(=O)N1CCCC1C(=O)O (stereo not drawn) (Boc-Tyr-Pro-OH; configuration not given here) | > 100 µM

Fill in the recorded TGI for this compound, with SK-OV-3 ovarian as test system: COc1cccc(NC(=O)CSc2nnc(-c3ccc(NC(C)=O)cc3)o2)c1 > 100 µM

Request: TGI, test system SK-OV-3 ovarian, entry N#CC1C(=O)NC23CCCCC2C1c1ccccc1O3 (stereo not given) > 100 µM

What TGI appears in the records for this compound with SK-OV-3 ovarian? CC(=O)CN(Cc1cc(C)c2c(c1)c1ccccc1n2Cc1ccccc1)S(=O)(=O)c1ccc(C)cc1 > 100 µM

---

# Tested on: HT29 colon
# PROTOCOL DETAILS: NCI tumour cell line growth inhibition, 48 h; in the data active means GI50 below about 0.43 µM; inactive means the rest
Assign a class; possible classes are label 1 (active), label 0 (inactive)

• O=[N+]([O-])c1ccc(C=Cc2ccccc2)cc1.[C-]#[O+].[C-]#[O+].[C-]#[O+].[Cr] = label 0

Dear all, I need the recorded test outcome for CCOC(=O)C1=C(C)N(c2ccc(Cl)cc2)[C@]2(C#N)C(O)=C(Cl)C(Cl)=C(O)[C@]12C#N , thank you. label 0

What outcome does the record of this test show for O=C1OCC2=C1C(c1ccccc1)c1cc3c(cc1N2)OCO3 (stereo not given) ? label 1

Which outcome was entered for the molecule O=C1CCC(N2Cc3cc(CNC(=O)C(F)(F)c4ccc(Cl)cc4)ccc3C2=O)C(=O)N1 (stereo not given) in this test? label 0

Per the records of this test, what outcome belongs to O=C(/C=C\c1cccc([N+](=O)[O-])c1)/C=C/c1cccc([N+](=O)[O-])c1 ? label 0

Assay outcome for CC(=O)/C=C/c1cn(C(=O)OC(C)(C)C)c2ccc(Br)cc12 : what was it? label 0

Would you mind telling me which call this test gave O=C(NN1C(=O)CSC12CCCCC2)c1[nH]c2ccc(Br)cc2c1-c1ccccc1 ? label 0

Lab log entry: CO[C@H]1CC(O[C@@H]2/C(C)=C/C[C@@H]3C[C@@H](C[C@]4(C=C[C@H](C)[C@@H](C5CCCCC5)O4)O3)OC(=O)[C@@H]3C=C(C)[C@@H](O)[C@H]4OC/C(=C\C=C\[C@@H]2C)[C@]43O)O[C@@H](C)C1O[C@H]1C[C@H](OC)[C@@H](O)[C@H](C)O1 (stereo not given in full) — outcome as called in the assay? label 0

Which outcome was entered for the molecule CN=c1ccc2nc3ccc(N)cc3sc-2c1 in this test? label 0

Record lookup: outcome of this test for COc1ccc2c(c1)N(CCO)C1=C(C(=O)OC1)C2c1cccc(F)c1 (stereo not given) ? label 1

Lab log entry: O=C(OCc1ccc2ccccc2n1)c1cn(C2CC2)c2cc(N3CCN(Cc4ccc5ccccc5n4)CC3)c(F)cc2c1=O — outcome as called in the assay? label 0

Please state the recorded outcome for this molecule: CN[C@@H](C)C(=O)N[C@H](C(=O)N1CCC[C@H]1C(=O)Nc1sc(-c2ncco2)nc1-c1ccccc1)C1CCCCC1 label 0

Attribution: PubChem BioAssay (NCI)
